Reference for the values: patent US20090117124A1

- target_or_test_system: T1, human IgG3 (Biodesign, Cat. No. A50186H) (human)
- T1 construct: Bought immunoglobulin coated on the plate
- experiment_summary: ELISA on coated immunoglobulin
readout_type: A290 nm (A290 nm)
Answers are plain numbers, in A290 nm.

Solved entries:
{"binder": "6.605.1 Hc-H3Q, M13K, D82E Lc-T25A, T53S (antibody, human IgG2, kappa, V domains shown, Human IgG2 kappa; leader omitted; also called 6.605.1 (H3Q, M13K, D82E-T25A, T53S); 6.605.1 QKE/AS) VH: QVQLVQSGAEVKKPGASVKVSCKASGYTFTSYGISWVRQAPGQGLEWMGWISAYNGNTNYAQKLQGRITMTTDTSTSTAYMELRSLRSDDTAVYYCARDGDYYDPFDYWGQGTLVTVSS VL: DIQMTQSPSSLSASVGDRVTITCRASQSISNWLNWYQQKPGKAPKLLIYGASSLKSGVPSRFSGSESGTDFTLTISSLQPEDFATYYCQQSYSTPPTFGQGTKVEIKR", "unit_name": "A290 nm", "A290 nm": 0.04}
{"binder": "5.396.1 Hc-S103N Lc-K61R (antibody, human IgG2, kappa, V domains shown, Human IgG2 kappa; leader omitted; also called 5.396.1 (S103N/K61R); 5.396.1 S103N/K61R) VH: QVQLQQWGAGLLKPSETLSLTCAVYGGSFSGYYWSWIRQPPGKGLEWIGEIHHSGSTNYNPSLKSRVTISVDTSKNQFSLKLSSVTAADTAVYYCARDNWNDNFYYYYGMDVWGQGTTVTVSS VL: DIQMTQSPSSLSASVGDRVTITCRASQGISNHLAWFQQKPGKAPKSLIYAASSLQSGVPSRFSGSGSGTDFTLTISSLQPEDFATYYCQQYNRHPFTFGPGTKVDIKR", "unit_name": "A290 nm", "A290 nm": 0.05}

Next binder, please.
input: Entry 5.396.1 (recombinant) (antibody, human IgG2, kappa, V domains shown, Fully human IgG2 kappa, expressed in 293 Freestyle cells; also called recombinant 5.396.1) VH: QVQLQQWGAGLLKPSETLSLTCAVYGGSFSGYYWSWIRQPPGKGLEWIGEIHHSGSTNYNPSLKSRVTISVDTSKNQFSLKLSSVTAADTAVYYCARDNWNDSFYYYYGMDVWGQGTTVTVSS VL: DIQMTQSPSSLSASVGDRVTITCRASQGISNHLAWFQQKPGKAPKSLIYAASSLQSGVPSKFSGSGSGTDFTLTISSLQPEDFATYYCQQYNRHPFTFGPGTKVDIKR has what A290 nm?
output: 0.05
